Just for reference, the RepoRT retention time repository (doi:10.1007/s00216-021-03828-0) is where these values come from.

Measured log10 of LC retention time values are reported for all entries that follow.
protocol notes: RP, Merck Supelco Ascentis Express C18, 100 × 2.1 mm, 2 µm, 40 °C, 0.25 mL/min, estimated dead time 0.88 min; A: water + 0.1% formic acid, pH 3; B: acetonitrile + 0.1% formic acid, pH 3; gradient (min/%B) 0/5 2/5 17/99.9 20/99.9
condition info: stereoisomer not certain
The base-10 logarithm of LC retention time, taken with LC retention time in min, is what appears here.

Look over these answered cases.
# molecule, readout number
rows = [
    ("O=C(O)CCCCCCCCC(=O)O [SEBACATE]", 0.86),
    ("CC(C)CC(N)C(=O)O (stereo not given)", 0.09),
    ("CC(=CCC1=C(C)C(=O)c2ccccc2C1=O)CCCC(C)CCCC(C)CCCC(C)C (stereo not given)", 1.17),
    ("CCCCCCC=CCCCCCCCC(=O)[O-] [PALMITOLEATE]", 1.20),
]

Look at this molecule and give its reported log10 of LC retention time. Nc1ncnc2c1ncn2C1CC(O)C(CO)O1 (stereo not given)
0.04

###

In this section we review reported LC retention time values for a set of molecules.
protocol notes: RP, Merck Supelco Ascentis Express C18, 100 × 2.1 mm, 2 µm, 40 °C, 0.2 mL/min, estimated dead time 1.1 min; A: water + 0.1% formic acid, pH 3; B: acetonitrile + 0.1% formic acid, pH 3; gradient (min/%B) 0/5 2/5 17/99.9 20/99.9
condition info: stereoisomer not certain
# number only, unit min dropped from output

Use these answered entries as a reference point.
# molecule, result units, LC retention time
data = [
    ("CCCCCCCCCCCC(=O)OC(CC(=O)[O-])C[N+](C)(C)C (centres undefined)", "min", 10.8),
    ("Nc1nc2nccnc2c(=O)[nH]1", "min", 1.33),
    ("CC(CC(=O)O)CC(=O)O [METHYGLUTARATE]", "min", 3.84),
    ("CCC(C(=O)O)C(=O)O [ETHYLMALONATE]", "min", 3.05),
    ("CC1NC(=O)NC1CCCCCC(=O)O (centres undefined)", "min", 5.92),
]

For the molecule shown here, NC(=O)c1ccccc1O [SALICYLAMIDE] , give the reported LC retention time.
5.82

// query LC retention time value for entry CC(CCC(=O)NCC(=O)O)C1CCC2C3C(O)CC4CC(O)CCC4(C)C3CCC12C (centres undefined) [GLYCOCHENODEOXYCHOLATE]
10.4

Which LC retention time value belongs to O=C(O)c1ccccc1[O-] [SALICYLATE] ?
5.31

Return reported LC retention time; argument: O=C(O)c1cccc(O)c1O [2,3-DIHYDROXYBENZOATE]
5.32

Form field: reported LC retention time of `c1ccc2ncccc2c1`
10.2

Would you kindly share the measured LC retention time for CC=CC=CC(=O)[O-] [SORBATE] ?
7.02

State the recorded LC retention time for this entry: CCCCCCCC(=O)O [CAPRYLATE]
10.7

###

protocol notes: RP, Merck Supelco Ascentis Express C18, 100 × 2.1 mm, 2 µm, 40 °C, 0.35 mL/min, estimated dead time 0.63 min; A: water + 0.1% formic acid, pH 3; B: acetonitrile + 0.1% formic acid, pH 3; gradient (min/%B) 0/5 2/5 17/99.9 20/99.9
condition info: stereoisomer not certain
The entries below come with measured LC retention time values attached.
Just the number in min, nothing appended.

Worked set:
# molecule, LC retention time (min)
rows = [
    ("Nc1nc2c(ncn2C2OC(CO)C(O)C2O)c(=O)[nH]1 (stereo not drawn)", 0.757),
    ("O=C(O)CCCCCCCCC(=O)O [SEBACATE]", 6.59),
]

Give the measured LC retention time of O=C(O)CCCCCCCCCCCO [OMEGA-HYDROXYDODECANOATE] .
8.4
